ASSAY EXPLANATION: acute toxicity, single oral administration to mice
CONDITION: mouse, in vivo
QUANTITY MEASURED: LD50

Request: Requested field: LD50. Item: `CCCCC/C=C\C/C=C\C[C@@H](C[C@@H]1OC(=O)[C@H]1CCCCCC)OC(=O)[C@H](CC(C)C)NC=O`
Result: > 4000 mg/kg

----------
SYSTEM TESTED: pig pancreas lipase (Sus scrofa)
Sequence (P00591 whole entry): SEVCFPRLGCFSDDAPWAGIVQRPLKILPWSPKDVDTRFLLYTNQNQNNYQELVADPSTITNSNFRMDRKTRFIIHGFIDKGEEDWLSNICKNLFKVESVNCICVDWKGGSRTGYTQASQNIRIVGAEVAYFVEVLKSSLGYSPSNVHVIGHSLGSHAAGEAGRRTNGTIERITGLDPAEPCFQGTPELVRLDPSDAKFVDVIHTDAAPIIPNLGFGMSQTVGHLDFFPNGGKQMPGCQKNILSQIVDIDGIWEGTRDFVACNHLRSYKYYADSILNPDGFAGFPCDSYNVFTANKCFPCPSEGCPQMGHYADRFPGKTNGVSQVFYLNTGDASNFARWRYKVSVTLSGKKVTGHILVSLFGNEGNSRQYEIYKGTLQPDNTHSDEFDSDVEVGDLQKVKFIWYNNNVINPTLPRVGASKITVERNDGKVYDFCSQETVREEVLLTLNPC
QUANTITY MEASURED: pIC50
Hey, just a heads up that pIC50 is the negative log base 10 of the concentration in molar.

Request: Request - read-out pIC50 | tested on pig pancreas lipase (Sus scrofa) | molecule `CCCCC/C=C\C/C=C\C[C@@H](C[C@@H]1OC(=O)[C@H]1CCCCCC)OC(=O)[C@H](CC(C)C)NC=O`
Result: 6.85
